Target: UniProtKB Q12809
Sequence (Q12809 whole entry): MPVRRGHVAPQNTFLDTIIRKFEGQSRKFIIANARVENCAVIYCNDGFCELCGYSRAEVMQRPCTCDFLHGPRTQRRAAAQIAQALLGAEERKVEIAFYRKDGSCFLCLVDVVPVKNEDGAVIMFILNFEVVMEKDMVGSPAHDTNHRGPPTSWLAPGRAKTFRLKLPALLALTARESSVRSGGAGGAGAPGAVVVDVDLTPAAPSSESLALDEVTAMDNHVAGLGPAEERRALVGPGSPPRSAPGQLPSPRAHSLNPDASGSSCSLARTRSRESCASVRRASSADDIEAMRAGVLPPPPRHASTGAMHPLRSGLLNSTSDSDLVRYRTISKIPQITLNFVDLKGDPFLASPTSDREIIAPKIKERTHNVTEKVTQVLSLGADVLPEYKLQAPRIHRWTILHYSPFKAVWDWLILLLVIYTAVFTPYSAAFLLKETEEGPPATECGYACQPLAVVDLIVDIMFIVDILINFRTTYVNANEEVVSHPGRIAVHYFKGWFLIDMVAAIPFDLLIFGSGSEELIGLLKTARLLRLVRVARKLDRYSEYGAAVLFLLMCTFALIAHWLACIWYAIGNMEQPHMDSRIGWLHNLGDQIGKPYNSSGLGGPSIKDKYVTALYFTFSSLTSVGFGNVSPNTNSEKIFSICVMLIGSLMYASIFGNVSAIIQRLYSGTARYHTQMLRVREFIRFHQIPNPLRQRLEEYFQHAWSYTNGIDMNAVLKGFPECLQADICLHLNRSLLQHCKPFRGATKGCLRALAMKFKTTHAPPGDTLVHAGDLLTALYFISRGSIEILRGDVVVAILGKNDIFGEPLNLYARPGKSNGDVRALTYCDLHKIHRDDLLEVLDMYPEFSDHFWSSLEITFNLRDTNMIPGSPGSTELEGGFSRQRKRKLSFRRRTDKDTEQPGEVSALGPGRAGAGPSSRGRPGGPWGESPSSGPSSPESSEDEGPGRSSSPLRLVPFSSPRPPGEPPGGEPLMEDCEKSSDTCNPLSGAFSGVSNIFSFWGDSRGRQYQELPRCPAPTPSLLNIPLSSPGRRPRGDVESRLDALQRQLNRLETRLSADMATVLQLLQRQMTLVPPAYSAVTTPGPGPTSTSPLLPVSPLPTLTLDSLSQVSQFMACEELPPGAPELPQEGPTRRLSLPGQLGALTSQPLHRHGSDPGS
Sequence (Q12809 whole entry): as above
Sequence (Q12809 whole entry): as above
Sequence (Q12809 whole entry): as above
Format: cell-based
Conditions: read-out: EC50 for increase in Itest measured at 20 mV; ICA; WT4
experimental.readout: EC50 (µM)

• O=C(Nc1ccc(Oc2ccccc2)cc1)c1cccc([N+](=O)[O-])c1 [ICA, 3-nitro-N-(4-phenoxyphenyl) benzamide] = 9.1

The values you see were collected from paper PMC3971662.
